System: VAC Copenhagen
Assay: microbe, parasite or virus in culture
Format: cell-based, vaccinia virus
observable: Therapeutic index (TI) VAC LLC-MK2
Give the figure only, with no unit attached.

[
  {
    "cpd-smiles": "Nc1nccc2c1ncn2[C@@H]1C[C@@H](CO)[C@H](O)[C@@H]1O",
    "Therapeutic index (TI) VAC LLC-MK2": 29.4
  },
  {
    "cpd-smiles": "CC(C)(C)C(=O)OCOP(=O)(COCCn1cnc2c(N)ncnc21)OCOC(=O)C(C)(C)C",
    "Therapeutic index (TI) VAC LLC-MK2": 1.5
  },
  {
    "cpd-smiles": "Nc1ccn(C[C@@H](CO)OCP(=O)(O)O)c(=O)n1",
    "Therapeutic index (TI) VAC LLC-MK2": 23.3
  }
]

Shifting focus to the molecule that follows.
Task: Could you share what Therapeutic index (TI) VAC LLC-MK2 was measured for `CN1C(=O)/C(=N\NC(N)=S)c2ccccc21` , tested on VAC Copenhagen?
Result: 1.9

----------
Recorded measurements of IC50, one per entry
Tested on: VAR-YAM (1946 Japan Yamada isolate of VAR major)
Assay: organism not typed
Assay type: cell-based, variola major
Details: LLC-MK2, read-out: IC50 VAR-YAM LLC-MK2

Solved cases (3 shown):
[
  {
    "molecule": "CC(C)(C)C(=O)OCOP(=O)(COCCn1cnc2c(N)ncnc21)OCOC(=O)C(C)(C)C",
    "IC50": "> 100 µg/mL"
  },
  {
    "molecule": "NC(=O)c1ncn([C@@H]2O[C@H](CO)[C@@H](O)[C@H]2O)n1",
    "IC50": "3.4 µg/mL"
  },
  {
    "molecule": "Nc1nccc2c1ncn2C1C=C(CO)C(O)C1O (single isomer, unassigned; (-))",
    "IC50": "0.24 µg/mL"
  }
]

Shifting focus to the molecule that follows.
Task: May I ask what IC50 has been recorded for `NC(=O)c1csc([C@@H]2O[C@H](CO)[C@@H](O)[C@H]2O)n1` ?
Result: 3.9 µg/mL

----------
Tested on: VAC Copenhagen
Assay: microbe, parasite or virus in culture
Format: cell-based, vaccinia virus
Conditions: Orthopoxvirus vaccinia, LLC-MK2, read-out: IC50 VAC LLC-MK2
observable: IC50 (µg/mL)
A number alone suffices; assume µg/mL.

Solved cases (6 shown):
[
  {
    "compound": "NC(=O)c1csc([C@@H]2O[C@H](CO)[C@@H](O)[C@H]2O)n1",
    "value-unit": "µg/mL",
    "numeric-value": 33.3
  },
  {
    "compound": "CN1C(=O)/C(=N\\NC(N)=S)c2ccccc21",
    "value-unit": "µg/mL",
    "numeric-value": 52
  },
  {
    "compound": "Nc1ccn(C[C@H]2COP(=O)(O)CO2)c(=O)n1",
    "value-unit": "µg/mL",
    "numeric-value": 4.4
  },
  {
    "compound": "NC(=O)c1ncn([C@@H]2O[C@H](CO)[C@@H](O)[C@H]2O)n1",
    "value-unit": "µg/mL",
    "numeric-value": 23.9
  },
  {
    "compound": "Nc1nccc2c1ncn2C1C=C(CO)C(O)C1O (single isomer, unassigned; (-))",
    "value-unit": "µg/mL",
    "numeric-value": 0.05
  },
  {
    "compound": "CC(C)(C)C(=O)OCOP(=O)(COCCn1cnc2c(N)ncnc21)OCOC(=O)C(C)(C)C",
    "value-unit": "µg/mL",
    "numeric-value": 66.2
  }
]

Shifting focus to the compound that follows.
Task: May I ask what IC50 has been recorded for `Nc1ccn(C[C@@H](CO)OCP(=O)(O)O)c(=O)n1` ?
Result: 4.3

----------
Test system: Vero cells
Conditions: African green monkey
Recorded measurements of Cytotoxicity TC50 Vero, one per entry

Solved cases (6 shown):
[
  {
    "compound": "CC(C)(C)C(=O)OCOP(=O)(COCCn1cnc2c(N)ncnc21)OCOC(=O)C(C)(C)C",
    "system-under-test": "Vero cells",
    "Cytotoxicity TC50 Vero": ">100 µg/mL"
  },
  {
    "compound": "NC(=O)c1csc([C@@H]2O[C@H](CO)[C@@H](O)[C@H]2O)n1",
    "system-under-test": "Vero cells",
    "Cytotoxicity TC50 Vero": "90.0 µg/mL"
  },
  {
    "compound": "Nc1ccn(C[C@H]2COP(=O)(O)CO2)c(=O)n1",
    "system-under-test": "Vero cells",
    "Cytotoxicity TC50 Vero": "80.0 µg/mL"
  },
  {
    "compound": "NC(=O)c1ncn([C@@H]2O[C@H](CO)[C@@H](O)[C@H]2O)n1",
    "system-under-test": "Vero cells",
    "Cytotoxicity TC50 Vero": ">100 µg/mL"
  },
  {
    "compound": "CN1C(=O)/C(=N\\NC(N)=S)c2ccccc21",
    "system-under-test": "Vero cells",
    "Cytotoxicity TC50 Vero": ">100 µg/mL"
  },
  {
    "compound": "Nc1ccn(C[C@@H](CO)OCP(=O)(O)O)c(=O)n1",
    "system-under-test": "Vero cells",
    "Cytotoxicity TC50 Vero": ">100 µg/mL"
  }
]

Shifting focus to the compound that follows.
Task: May I ask what Cytotoxicity TC50 Vero has been recorded for Nc1nccc2c1ncn2C1C=C(CO)C(O)C1O (single isomer, unassigned; (-)) ?
Result: >100 µg/mL

----------
System: VAC Copenhagen
Assay: microbe, parasite or virus in culture
Format: cell-based, vaccinia virus
observable: Therapeutic index (TI) VAC LLC-MK2
Give the figure only, with no unit attached.

[
  {
    "compound": "NC(=O)c1ncn([C@@H]2O[C@H](CO)[C@@H](O)[C@H]2O)n1 [Ribavirin]",
    "system-under-test": "VAC Copenhagen",
    "numeric-value": 4.2
  },
  {
    "compound": "Nc1ncnc2c1ncn2C[C@@H](CO)OCP(=O)(O)O [HPMPA]",
    "system-under-test": "VAC Copenhagen",
    "numeric-value": 12.5
  },
  {
    "compound": "Nc1nccc2c1ncn2C1C=C(CO)C(O)C1O (single isomer, unassigned; (-)) [C3-Npc A]",
    "system-under-test": "VAC Copenhagen",
    "numeric-value": 2000
  },
  {
    "compound": "NC(=O)c1csc([C@@H]2O[C@H](CO)[C@@H](O)[C@H]2O)n1 [Tiazofurin]",
    "system-under-test": "VAC Copenhagen",
    "numeric-value": 3.0
  }
]

Task: May I ask what Therapeutic index (TI) VAC LLC-MK2 has been recorded for Nc1ccn(C[C@H]2COP(=O)(O)CO2)c(=O)n1 [cHPMPC] ?
Result: 22.7

----------
Test system: VAR-BSH (1975 Bangladesh isolate of VAR major)
Test: organism not typed
Format: cell-based, variola major
Details: Vero, read-out: IC50 VAR-BSH Vero
Hi! Just check whether IC50 is below 30 µg/mL. Below gives yes, equal or above gives no.

Past entries and their recorded results:
[
  {
    "compound": "CN1C(=O)/C(=N\\NC(N)=S)c2ccccc21",
    "class-label": "no"
  },
  {
    "compound": "Nc1ccn(C[C@@H](CO)OCP(=O)(O)O)c(=O)n1",
    "class-label": "yes"
  },
  {
    "compound": "NC(=O)c1csc([C@@H]2O[C@H](CO)[C@@H](O)[C@H]2O)n1",
    "class-label": "yes"
  },
  {
    "compound": "Nc1ccn(C[C@H]2COP(=O)(O)CO2)c(=O)n1",
    "class-label": "yes"
  },
  {
    "compound": "Nc1nccc2c1ncn2C1C=C(CO)C(O)C1O (single isomer, unassigned; (-))",
    "class-label": "yes"
  }
]

Task: Given `CC(C)(C)C(=O)OCOP(=O)(COCCn1cnc2c(N)ncnc21)OCOC(=O)C(C)(C)C` , is recorded IC50 strictly lower than 30 µg/mL?
Result: no

Task: Given `NC(=O)c1ncn([C@@H]2O[C@H](CO)[C@@H](O)[C@H]2O)n1` , is recorded IC50 strictly lower than 30 µg/mL?
Result: yes

----------
Tested on: VAC Copenhagen
Assay: microbe, parasite or virus in culture
Format: cell-based, vaccinia virus
Details: Orthopoxvirus vaccinia, Vero, read-out: IC50 VAC Vero
observable: IC50 (µg/mL)
A number alone suffices; assume µg/mL.

Solved cases (2 shown):
[
  {
    "molecule": "Nc1ccn(C[C@@H](CO)OCP(=O)(O)O)c(=O)n1",
    "value-unit": "µg/mL",
    "IC50": 8.1
  },
  {
    "molecule": "CN1C(=O)/C(=N\\NC(N)=S)c2ccccc21",
    "value-unit": "µg/mL",
    "IC50": 45.8
  }
]

Task: May I ask what IC50 has been recorded for `CC(C)(C)C(=O)OCOP(=O)(COCCn1cnc2c(N)ncnc21)OCOC(=O)C(C)(C)C` ?
Result: 44

Task: May I ask what IC50 has been recorded for Nc1nccc2c1ncn2C1C=C(CO)C(O)C1O (single isomer, unassigned; (-)) ?
Result: 0.02

Task: May I ask what IC50 has been recorded for `Nc1ccn(C[C@H]2COP(=O)(O)CO2)c(=O)n1` ?
Result: 18.1
